- Experimental system: CCR2 (Homo sapiens)
- Construct: host or cells: THP-1 cells
- Test protocol: MCP-1 Receptor Binding Assay in THP-1 Cells
- Details: test concentration of 25 μM; given where an IC50 value was not obtained; read-out: Inhibition of MCP-1 Binding, percent inhibition
- Description: THP-1 cells were obtained from American Type Culture Collection (Manassas, Va., USA). The THP-1 cells were grown in RPMI-1640 supplemented with 10% fetal bovine serum in a humidified 5% CO2 atmosphere at 37° C. The cell density was maintained […]. […]
Readout label: inhibition at 25 µM (%)

1) CC(C)(C)OC(=O)N1CCC(C(O)CN2CCC(c3c[nH]c4ccc(NS(C)(=O)=O)cc34)CC2)CC1 (centres unmarked) :: 46

1. O=C(/C=C/c1cc(F)c(F)cc1F)N1CCC(O)(C(O)CN2CCC(c3c[nH]c4ccc(N5CCOCC5)cc34)CC2)CC1 (centres unmarked)
2. CCOC(=O)C(CC1CCN(C(=O)C=Cc2ccc(Cl)c(Cl)c2)CC1)N1CCC(c2c[nH]c3ccccc23)CC1 (centres unmarked)
Asked: Please indicate which item has the smaller measured inhibition at 25 µM: 1 versus 2 Answer with the label corresponding to your selection.
Given back: 2

P. COc1ccc(C2CCN(CC(O)C3CCN(c4ccc([N+](=O)[O-])cn4)CC3)CC2)cc1 (centres unmarked)
Q. COc1ccc(C2CCN(CC(O)C3CCN(C(=O)Nc4cc(Cl)c(Cl)cc4F)CC3)CC2)cc1 (centres unmarked)
Asked: Just tell me: smaller inhibition at 25 µM value, P or Q ? # respond with the chosen item's label
Given back: P
(P: 59%, Q: 87%)

---

- Tested on: MCP-1 induced chemotaxis of THP-1 cells
- Test protocol: MCP-1 Induced Chemotaxis in THP-1 Cells
- Type: cell-based
- Details: Homo sapiens, MCP-1 0.01 μg/mL, 3 hours at 37° C., read-out: Inhibition of MCP-1 Induced Chemotaxis IC50
Readout label: IC50 (µM)

a. CS(=O)(=O)Nc1ccc2[nH]cc(C3CCN(CC(O)C4CCN(C(=O)C=Cc5cc(F)cc(F)c5)CC4)CC3)c2c1 (stereo not shown)
b. O=C(/C=C/c1cc(F)c(F)c(F)c1)N1CCC(C(O)CN2CCC(c3nc4ccccc4[nH]3)CC2)CC1 (stereo not shown)
c. O=C(Nc1ccc(Cl)c(Cl)c1)N1CCC(C(O)CN2CCC(c3c[nH]c4ccccc34)CC2)CC1 (stereo not shown)
d. O=C(/C=C/c1cc(F)cc(F)c1)N1CCC(O)(C(O)CN2CCC(c3ccc(Cl)cc3)CC2)CC1 (stereo not shown)
Asked: Sort the entries above by IC50, largest first. Give your ranking as a list of the labels in the requested order.
Given back: b, a, c, d

---

- Experimental system: CCR2 (Homo sapiens, UniProt P41597)
- Sequence (P41597 1-360 isoform P41597-2): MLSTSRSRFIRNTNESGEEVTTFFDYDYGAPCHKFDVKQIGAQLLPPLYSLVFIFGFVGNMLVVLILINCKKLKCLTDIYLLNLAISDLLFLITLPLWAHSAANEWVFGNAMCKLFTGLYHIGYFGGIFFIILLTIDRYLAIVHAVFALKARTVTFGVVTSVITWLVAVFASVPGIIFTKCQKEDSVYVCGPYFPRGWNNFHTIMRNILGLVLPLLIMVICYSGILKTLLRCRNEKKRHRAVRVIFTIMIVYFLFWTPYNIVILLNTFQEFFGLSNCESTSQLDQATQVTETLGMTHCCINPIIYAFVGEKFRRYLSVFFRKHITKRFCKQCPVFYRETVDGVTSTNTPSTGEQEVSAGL
- Test protocol: MCP-1 Receptor Binding Assay in THP-1 Cells
- Details: THP-1 cells, 0.5 nM 125I labeled MCP-1, 2 hours at 30° C.; read-out: Inhibition of MCP-1 Binding IC50
Readout label: IC50 (nM)

Answered cases to consult:
1. O=C(/C=C/c1ccc(F)c(F)c1)N1CCC(O)(C(O)CN2CCC(c3c[nH]c4ccc(N5CCOCC5)cc34)CC2)CC1 (stereo not shown) [Compound 172] :: 3700
2. O=C(/C=C/c1ccc(F)c(F)c1)N1CCC(O)(C(O)CN2CCC(c3ccc(C(F)(F)F)cc3)CC2)CC1 (stereo not shown) [Compound 137] :: 255
3. O=C(/C=C/c1ccc(Cl)c(Cl)c1)N1CCC(O)(C(O)CN2CCC(c3c[nH]c4ccc(N5CCOCC5)cc34)CC2)CC1 (stereo not shown) [Compound 169] :: 790
4. OC(CN1CCC(c2c[nH]c3ccc(F)cc23)CC1)C1(O)CCN(C(=S)Nc2ccc(Cl)c(Cl)c2)CC1 (stereo not shown) [Compound 162] :: 8100

1. O=C(O)C(CC1CCN(C(=O)C=Cc2cc(F)cc(F)c2)CC1)N1CCC(c2c[nH]c3ccccc23)CC1 (stereo not shown) [Compound 61]
2. O=C(Nc1ccc(Cl)c(Cl)c1)N1CCC(C(O)CN2CCC(c3c[nH]c4ncccc34)CC2)CC1 (stereo not shown) [Compound 24]
3. COc1ccc(C2CCN(CC(O)C3CCN(C(=O)Nc4ccc(Cl)c(Cl)c4)CC3)CC2)cc1 (stereo not shown) [Compound 15]
Asked: Kindly order the items shown according to IC50, from the highest value down. # list labels per requested ordering
Given back: 1, 2, 3
